Where do these numbers come from? They come from patent US11779649B2.

assay.notes: Stability of Compound (A2), hepatic S9 fraction, human
Format: in vitro ADME
test.context: +NADPH, read-out: Hepatic S9 (+/−NADPH) t½ (converted)
Positions of bridges follow the written chain, without caps; N, C: chain ends. Non-standard residues stand in square brackets, D forms with d. Residues, ends and D or L forms follow the SMILES beside them. Leu(3R-O(AcLeu(3R-OH))) = CC(=O)N[C@H](C(=O)O[C@H](C(C)C)[C@H](N)C(=O)O)[C@H](O)C(C)C; NMeT = CN[C@H](C(=O)O)[C@@H](C)O; dPhLac = O=C(O)[C@H](O)Cc1ccccc1; NMeA = CN[C@@H](C)C(=O)O; NMeDha = C=C(NC)C(=O)O
readout.type: half-life (h)
State the answer as a number, implicitly in h.

Recorded half-life for C=C1C(=O)N[C@@H](C)C(=O)N(C)[C@@H](C)C(=O)N[C@@H]([C@H](OC(=O)[C@@H](NC(C)=O)[C@H](O)C(C)C)C(C)C)C(=O)N(C)[C@@H]([C@@H](C)OC)C(=O)O[C@H](C)[C@H](NC(C)=O)C(=O)O[C@H](Cc2ccccc2)C(=O)N1C [Compound (A2)] (Ac-T[dPhLac][NMeDha]A[NMeA][Leu(3R-O(AcLeu(3R-OH)))][NMeT](Me); ester 1-C) , please?
1.9
